Origin of values: paper PMC5662698

TEST_TARGET: human BiP, wild type (human, UniProt P11021 19-654)
Sequence (P11021 19-654): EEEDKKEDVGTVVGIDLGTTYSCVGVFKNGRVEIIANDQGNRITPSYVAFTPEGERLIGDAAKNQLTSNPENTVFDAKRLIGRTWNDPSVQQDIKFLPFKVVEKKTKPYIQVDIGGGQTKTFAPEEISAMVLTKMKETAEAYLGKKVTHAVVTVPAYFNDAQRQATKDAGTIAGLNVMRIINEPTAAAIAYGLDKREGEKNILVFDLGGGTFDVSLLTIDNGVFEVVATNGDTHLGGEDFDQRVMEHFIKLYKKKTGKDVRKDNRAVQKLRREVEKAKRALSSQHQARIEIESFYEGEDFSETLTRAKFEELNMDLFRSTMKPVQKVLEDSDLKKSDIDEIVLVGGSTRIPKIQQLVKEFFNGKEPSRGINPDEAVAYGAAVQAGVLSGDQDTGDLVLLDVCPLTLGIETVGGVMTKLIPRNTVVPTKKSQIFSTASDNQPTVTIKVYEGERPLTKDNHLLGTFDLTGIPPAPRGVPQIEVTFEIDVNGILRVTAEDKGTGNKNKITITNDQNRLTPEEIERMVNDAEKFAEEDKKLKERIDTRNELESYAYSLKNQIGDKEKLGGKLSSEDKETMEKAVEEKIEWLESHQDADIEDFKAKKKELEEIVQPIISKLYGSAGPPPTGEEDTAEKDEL
ASSAY_INFO: FP
No end group written: not given here.
PROPERTY: Kd (nM)
Form entry: value (nM) — number only.

Input fluorescein-NRLLLTG [NR peptide (NRLLLTG), fluorescein-labelled] . Output Kd: 910
